target: human full-length VWF (human, UniProt P04275 764-2813); experiment: SPR, Biacore T200, antibody captured on Protein A, full-length VWF as analyte, single-cycle kinetics
koff values, listed per item
Provide the reading as a plain figure in s⁻¹.

Some solved entries appear below for comparison.
4-H3_H7_L1 (antibody, human IgG1, kappa, V domains shown, humanised, human IgG1 kappa) VH: QVQLVESGGGVVQPGRSLRLSCAASGIDLTSNAMNWVRQAPGKGLEWIGGIYGHDTSYYAAWAKGRFTISRDNSKNTVYLQMNSLRAEDTATYFCARGFIYFDIWGQGTLVTVSS VL: DYQMTQSPSSLSASVGDRVTITCLASEDIASGISWYQQKPGKAPKLLIYGASNLESGVPSRFSGSGSGTDYTLTISSLQPEDFATYYCLGGYSFSSNGLTFGGGTKVEIKT | 3.82e-07
4-H3_H7_VL-par (antibody, human IgG1, kappa, V domains shown, also called 4-H3_H7 (hIgG1)) VH: QVQLVESGGGVVQPGRSLRLSCAASGIDLTSNAMNWVRQAPGKGLEWIGGIYGHDTSYYAAWAKGRFTISRDNSKNTVYLQMNSLRAEDTATYFCARGFIYFDIWGQGTLVTVSS VL: AYDMTQTPPSLSASVGETVRIRCLASEDIASGISWYQQKPGKPPTLLIYGASNLESGVPPRFSGSGSGTDYTLTIGGVQAEDAATYYCLGGYSFSSNGLTFGAGTKVEIKT | 3.05e-07

Now consider a different binder.
Recorded result, 4-H3_H8_VL-par (antibody, human IgG1, kappa, V domains shown, also called 4-H3_H8 (hIgG1)) VH: QQLVESGGGVVQPGRSLRLSCAASGIDLTSNAMNWVRQAPGKGLEWIGGIYGHDTSYYAAWAKGRFTISRDSNTVYLQMNSLRAEDTATYFCARGFIYFDIWGQGTLVTVSS VL: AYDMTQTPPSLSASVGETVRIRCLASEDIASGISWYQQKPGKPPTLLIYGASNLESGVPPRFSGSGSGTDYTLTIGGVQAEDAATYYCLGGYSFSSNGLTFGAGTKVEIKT , koff: 5.99e-07
